# PROTOCOL_TEXT: yeast display, Sf9 membrane polyspecificity reagent, FACS + sequencing; frameworks hold sequencing errors
VALUE_TYPE: polyreactivity (PSR sort gate)

Example results:
{"BIOPOLYMER_SEQUENCE": "QVQLVESGGGLVQAGGRLRLRCAASGFTFRYNAMGCNRQAPGKERELVATISSGASTYYADSVKGRFTISRDNAKNTVYFQMNSLIPVDSAVYYCAADDLGLWFYSGVDDYYYCGQGTQVTVSS", "polyreactivity (PSR sort gate)": "low polyreactivity"}
{"BIOPOLYMER_SEQUENCE": "QVQLVESGGGLVQAGGSLRLSCAASGSIFYHNAMGWYRQAPGKERELVAAITWSGSTTYYADSVKGRFTISRDNAKKTVYLQMNSLKPEDTAVYYCNAGHRHGHYDYWGQGTQVTVSS", "polyreactivity (PSR sort gate)": "low polyreactivity"}
{"BIOPOLYMER_SEQUENCE": "QVQLVESGGGLVQAGGSLRLSCAASGFIFRGYAMGWYRQAPGKERELVAAISRRGGSTYYADSVKGRFTISRDNAKNTVYLHMNSLKPEDTAVYYCNAETTPQGNVRDGYWGQGTQVTVSS", "polyreactivity (PSR sort gate)": "high polyreactivity"}
{"BIOPOLYMER_SEQUENCE": "QVQLVESGGGLVQAGGSLRLSCAASGFTFEVNAMGWYRQAPGKERELVAAINRGGSTYYADSVKGRFTISRDNAKNTVYFQMNSLKPEDTAVYYCNRDYEYPTYPHDYWGQGTQVTVSS", "polyreactivity (PSR sort gate)": "low polyreactivity"}
{"BIOPOLYMER_SEQUENCE": "QVQLVESGGGLVQAGGSLRLSCAPSGSIFNYNIGSYRQAPVKERELVAAVSTNYADSVKGRFTISRDNAKNTVYIQMNSLKPADSAVYYCGVTPEKSCDEYDYWGQGTQVTVSS", "polyreactivity (PSR sort gate)": "low polyreactivity"}

Name the recorded polyreactivity (PSR sort gate) for QVQLVESGGGLVQAGGSLRLSCAASGSTFQHYAMGWYRQAPGKERELVAAITNTGGSTYYADSVKGRFTISRDNAKNTVDLQMNSLKPEDTAVYYCATVGRRYGYPGDYWGQGTQVTVSS . low polyreactivity

Name the recorded polyreactivity (PSR sort gate) for QVQLVESGGGLVQAGGSLRLSCAASGSILVHYSMGWYRQAPGKERELVAAISRGGSTNYADSVKGRFTISRDNAKNTVYLQMNSLKPEDTAVYYCAARRPWGEYYWGQGTQVTVSS . low polyreactivity

----------
# PROTOCOL_TEXT: yeast display, Sf9 membrane polyspecificity reagent, FACS + sequencing; frameworks hold sequencing errors
VALUE_TYPE: polyreactivity (PSR sort gate)

{"BIOPOLYMER_SEQUENCE": "QVQLVESGGGLVQAGGSLRLSCAASGFTFRWYTMVWYRQAPGKERELVAAITGSGCTTYYADSVKGRFTISRDNAKNTVYLQMNSLKPEDTAVYYCAARTATSSPSWYEYWGQGTQVTVSS", "RECORDED_VALUE": "high polyreactivity"}
{"BIOPOLYMER_SEQUENCE": "QDQLVESGGGLVQAGGSLRLSCAASGPIFYSNAMGWYRQAPGKERELVAAISSGDGITYYADSVKGRFTISRDNAKNTVYLQMNSLKPEDTAVYYCAADGYYDYPYSGDYWGQGTQVTVSS", "RECORDED_VALUE": "high polyreactivity"}
